- Test system: KM12 colon
- Test protocol: NCI-60 one-dose screen, 48 h (100 = growth as untreated, 0 = no growth, -100 = all killed)
- Particulars: 10 µM unless noted
About 83,000 compounds went through this panel and 20% of them were active in at least one assay; those are over-represented in the sample as a whole.
Endpoint name: growth (%)
Field format: number, assumed %, no unit text.

Use the examples below as a reference point.
>  <Molecule>
COc1cc2ncnc(Nc3ccc(S(=O)(=O)Nc4cc(C)on4)cc3)c2cc1OCCCN1CCN(c2ccc(F)cc2)CC1

>  <growth [%]>
107

$$$$
>  <Molecule>
O=S(=O)(NCCNc1nccc(-c2c(-c3ccc(F)c(O)c3)nc3occn23)n1)c1ccc(Cl)cc1

>  <growth [%]>
84

$$$$
>  <Molecule>
NS(=O)(=O)c1ccccc1NC(=O)Nc1nc2ccccc2s1

>  <growth [%]>
104

$$$$

Prompt line: # input molecule: COc1ccc(-c2ccc(=O)oc2-c2cc(OC)c(OC)c(OC)c2)cc1O ; wanted: its growth
Response line: 1.71

Prompt line: # input molecule: COc1ccccc1CNc1c2ccccc2nc2ccccc12 ; wanted: its growth
Response line: 32.9

Prompt line: # input molecule: O=C1C(Cl)=C(Nc2ccc(S(=O)(=O)N3CCOCC3)cc2)C(=O)c2ccccc21 ; wanted: its growth
Response line: 64.5

* * *

- Test system: SR leukemia
- Test protocol: NCI-60 one-dose screen, 48 h (100 = growth as untreated, 0 = no growth, -100 = all killed)
- Particulars: 10 µM unless noted
Compounds without any hit were thinned out: in the full panel of roughly 83,000, 20% have a hit.
Categories are assigned from the measured growth using these intervals: LOW (below 30%), MEDIUM (30% to below 90%), HIGH (90% or more)

>  <Compound>
CC1CCc2c(C(=O)Nc3ncc(Cc4cccc([N+](=O)[O-])c4)s3)csc2C1 (stereo unspecified)

>  <Assigned category>
LOW

$$$$
>  <Compound>
CCCOC(=O)Nc1nc2ccc(SCC(C)C)cc2s1

>  <Assigned category>
LOW

$$$$
>  <Compound>
COc1cc2c(cc1OCCCN1CCN(CCCOc3cc4c(cc3OC)C(=O)N3CCC[C@H]3C=N4)CC1)C=CC(C)(C)O2

>  <Assigned category>
LOW

$$$$
>  <Compound>
O=C(CSc1nc2sc3c(c2c(=O)n1-c1ccccc1)CCCCC3)N/N=C/c1cccc([N+](=O)[O-])c1

>  <Assigned category>
MEDIUM

$$$$
>  <Compound>
c1ccc2cc(C[n+]3ccn(CCCCCCCCCCn4cc[n+](Cc5ccc6ccccc6c5)c4)c3)ccc2c1

>  <Assigned category>
LOW

$$$$

Prompt line: Kindly identify the class of Cc1ccc(NC(=O)c2sc3nc(C)c(Br)c(C)c3c2N)cc1 .
Response line: MEDIUM

Prompt line: Kindly identify the class of [O-]/[N+](=C\c1ccc(-n2cc(Cc3ccccc3Cc3cn(-c4ccc(/C=[N+](/[O-])c5ccccc5)cc4)nn3)nn2)cc1)c1ccccc1 .
Response line: HIGH

Prompt line: Kindly identify the class of COc1ccc(Nc2nnc(-c3ccc(OC)c(OC)c3)o2)cc1 .
Response line: MEDIUM

Prompt line: Kindly identify the class of CC(O)(c1ccccc1)C(c1ccccc1)C1CCCCN1 (stereo unspecified) .
Response line: HIGH

* * *

- System: RPMI-8226 leukemia
- Test protocol: NCI-60 one-dose screen, 48 h
- Particulars: 10 µM unless noted
This is part of a sample that, as a whole, favours compounds with a hit. Of some 83,000 tested, about 20% had one in any assay. The source made the active and inactive calls. How the source made its calls: active means growth percent below 10; inactive means the rest.
Thanks in advance; please answer with one of these: T for active, F for inactive

Example results:
>  <Compound>
Cn1cc(-c2ccc3nc(-c4ccc(CC(=O)ONc5cc(C(C)(C)C)on5)cc4)cnc3c2)cn1

>  <Assigned category>
F

$$$$
>  <Compound>
Nc1n[nH]c2cccc(C#Cc3cccc(NC(=O)c4cc(F)cc(C(F)(F)F)c4)c3)c12

>  <Assigned category>
F

$$$$
>  <Compound>
COc1cc2oc(-c3cccc(NC(=O)c4ccccc4)c3)cc(=O)c2c(OC)c1OC

>  <Assigned category>
F

$$$$
>  <Compound>
Cc1ccc2c(Cn3cc(CSc4nc5ccccc5o4)nn3)cc(=O)oc2c1

>  <Assigned category>
F

$$$$
>  <Compound>
O=[N+]([O-])c1ccc(O)cc1Br

>  <Assigned category>
F

$$$$

Prompt line: Any idea what this test logged for CSc1nc2ncc([N+](=O)[O-])c(=O)n2[nH]1 ?
Response line: F

Prompt line: Any idea what this test logged for CCOC(=O)c1c(C(=O)c2cn(C)c3ccc(Br)cc23)c(-c2cn(C)c3ccc(Br)cc23)n(NC(=O)OC(C)(C)C)c1C ?
Response line: F

Prompt line: Any idea what this test logged for O=C(CN1CCCCC1)Nc1nc(-c2cc3ccccc3oc2=O)cs1 ?
Response line: F

Prompt line: Any idea what this test logged for O=C(Nc1nc2ccccc2s1)c1ccc(F)cc1 ?
Response line: F

* * *

- Test system: K-562 leukemia
- Test protocol: NCI-60 one-dose screen, 48 h (100 = growth as untreated, 0 = no growth, -100 = all killed)
- Particulars: 10 µM unless noted
This is part of a sample that, as a whole, favours compounds with a hit. Of some 83,000 tested, about 20% had one in any assay. Active and inactive are the calls of the source. How the source made its calls: active means growth percent below 10; inactive means the rest.
# Lookup of reported growth keyed by entry

>  <Molecular string>
Cc1ccc(-c2nc(N3CCCNCC3)c3oc(-c4ccc(C)cc4)nc3n2)cc1

>  <growth>
-76% (active)

$$$$

Prompt line: # input compound: C/C(Cc1ccc(Cl)cc1)=C(\c1ccc(O)cc1)c1ccc(Cl)cc1 ; wanted: its growth
Response line: 89.3% (inactive)

Prompt line: # input compound: Nc1nc2ccccc2c2c(=O)c3cccc(Cl)c3sc12 ; wanted: its growth
Response line: 91.7% (inactive)

Prompt line: # input compound: Cn1cc(-c2nonc2-c2cn(C)c3ccccc23)c2ccccc21 ; wanted: its growth
Response line: 9.77% (active)

Prompt line: # input compound: CCNCCNc1cc(C2CCCCC2)c(C#N)c2nc3ccccc3n12 ; wanted: its growth
Response line: -38.8% (active)

Prompt line: # input compound: CCN(CC)CCn1c2ccc(OC)cc2c2sc3cc(OC)ccc3c(=O)c21 ; wanted: its growth
Response line: 4.61% (active)

Prompt line: # input compound: Fc1cccc(Oc2ccc(Nc3ncnc4ccc(OCCCN5CCOCC5)cc34)cc2Cl)c1 ; wanted: its growth
Response line: 3.55% (active)

Prompt line: # input compound: C/C(=N\O)c1ccc(Cl)cc1 ; wanted: its growth
Response line: 100% (inactive)

* * *

- Tested on: SNB-75 CNS
- Test protocol: NCI-60 one-dose screen, 48 h
- Particulars: 10 µM unless noted
This is part of a sample that, as a whole, favours compounds with a hit. Of some 83,000 tested, about 20% had one in any assay. Calls of active or inactive are those of the source. Rule for the calls: active = growth percent below 10; inactive = the rest.
Thanks in advance; please answer with one of these: Y = active, N = inactive

Example results:
>  <Compound>
CCCCNCCCCCNc1cc(OC)cc2cccnc12

>  <Assigned category>
N

$$$$
>  <Compound>
O=S(=O)(c1ccccc1)n1cc2c(c1)-c1nc(Nc3ncccn3)sc1CC2

>  <Assigned category>
Y

$$$$
>  <Compound>
O=C1NC2(Nc3ccccc31)C(=O)Nc1c(Cl)cc(Cl)cc12 (centres undefined)

>  <Assigned category>
N

$$$$

Turning now to a further compound:
Prompt line: Any idea what this test logged for CCOC(=O)n1cc(-c2nonc2-c2cn(C(=O)OCC)c3ccc(Br)cc23)c2ccccc21 ?
Response line: N

* * *

- System: U251 CNS
- Test protocol: NCI-60 one-dose screen, 48 h (100 = growth as untreated, 0 = no growth, -100 = all killed)
- Particulars: 10 µM unless noted
Compounds without any hit were thinned out: in the full panel of roughly 83,000, 20% have a hit.
1 if growth is below 40%. 0 if not; exact matches included in 0.

>  <Compound>
COc1ccccc1CNc1c2ccccc2nc2ccccc12

>  <Assigned category>
1

$$$$
>  <Compound>
CN1CCN(c2cc(Nc3cc(C4CC4)[nH]n3)nc(Nc3ccc(CC(=O)NCc4cccc(F)c4)cc3)n2)CC1

>  <Assigned category>
1

$$$$
>  <Compound>
Cc1cc(N2CCN(CC(=O)Nc3ccc4c(ccn4C)c3)CC2)nc(N2CCCCCC2)n1

>  <Assigned category>
0

$$$$
>  <Compound>
Nc1nc2ccccc2c2c(=O)c3cccc(Cl)c3sc12

>  <Assigned category>
0

$$$$
>  <Compound>
Cc1ccc(NC(=O)c2sc3nc(C)c(Br)c(C)c3c2N)cc1

>  <Assigned category>
0

$$$$
>  <Compound>
Cc1[nH]c(=O)[nH]c(=O)c1Br

>  <Assigned category>
0

$$$$

Prompt line: Determine whether this compound shows growth lower than 40% (ties excluded): COC1=CC(c2ccc[nH]2)=N/C1=C\c1[nH]c(C)c(C(=O)OC(C)C)c1C
Response line: 1

Prompt line: Determine whether this compound shows growth lower than 40% (ties excluded): CCOC(=O)NC(C)C
Response line: 0

Prompt line: Determine whether this compound shows growth lower than 40% (ties excluded): Cc1cc(N2CCN(CCNc3ccnc4cc(Cl)ccc34)CC2)nc(N2CCOCC2)n1
Response line: 0

Prompt line: Determine whether this compound shows growth lower than 40% (ties excluded): CCCC/C=C/[C@@H]1C[C@H]1CCO
Response line: 0

Prompt line: Determine whether this compound shows growth lower than 40% (ties excluded): CCOC(=O)c1csc(NC(=O)COc2ccc(/C=C3\Oc4ccccc4C3=O)cc2)n1
Response line: 0

Prompt line: Determine whether this compound shows growth lower than 40% (ties excluded): CC(C)(C)CC(C)(C)NC(=O)Nc1ncccc1OCc1ccccc1
Response line: 0

Prompt line: Determine whether this compound shows growth lower than 40% (ties excluded): O=C(O)c1cn(C2CC2)c2cc(N3CCN(C(=O)N(c4ccccc4)c4nc(-c5ccccc5)cs4)CC3)c(F)cc2c1=O
Response line: 1
